# Test system: Alopecurus myosuroides (ALOMY)
# TEST PROTOCOL: Pre-emergence herbicidal glasshouse test on Alopecurus myosuroides
# Assay type: in vivo
# CONDITION CONTEXT: pre-emergence, 1000 g/h, evaluated after 13 days, five point scale
Please provide measured herbicidal damage, PRE Application ALOMY for the entries that follow.

Look up and state reported herbicidal damage, PRE Application ALOMY for Cn1ncc(-c2c(S(C)(=O)=O)ccc(Br)c2Br)c(O)c1=O
1 (1=0-19% damage)

Using known records, supply herbicidal damage, PRE Application ALOMY for C#CCn1ncc(-c2ccc(S(C)(=O)=O)c(C3=NOCC3)c2C)c(O)c1=O
5 (5=80-100% damage)

Fill in reported herbicidal damage, PRE Application ALOMY for this entry: COc1nccc(-c2cnn(C)c(=O)c2O)c1Cl
1 (1=0-19% damage)

Using the record for Cn1ncc(-c2cc(Br)c(Br)cc2S(C)(=O)=O)c(O)c1=O , state its measured herbicidal damage, PRE Application ALOMY.
1 (1=0-19% damage)

Return reported herbicidal damage, PRE Application ALOMY. Input molecule: Cn1ncc(-c2cc3cc(N4CCOCC4)cnc3nc2C(F)(F)F)c(O)c1=O
1 (1=0-19% damage)

Please list herbicidal damage, PRE Application ALOMY recorded for the molecule Cn1ncc(-c2cccn(-c3cccc(C(F)(F)F)c3)c2=O)c(O)c1=O
4 (4=60-79% damage)

Origin of measurements: patent US9693556B2
